Data origin: paper PMC10845965

# Tested on: RH T. gondii
# ASSAY INFO: Plaque assay and IC50 determination
# Format: cell-based, Toxoplasma gondii
# RUN CONDITIONS: Fig 7, unit inferred; plaque assay, 5 days; read-out: IC50
Would you mind telling me the reported IC50 of each entry?
Give bare numbers, in nM.

Name the reported IC50 value associated with the molecule "[Cl][Au][PH](Cc1ccccc1)(c1ccccc1)c1ccccc1" 450

Continuing:
Name the reported IC50 value associated with the molecule "CC(=O)OC[C@H]1O[C@@H]([S-])[C@H](OC(C)=O)[C@@H](OC(C)=O)[C@@H]1OC(C)=O.CCP(CC)CC.[Au+]" 560
